Reference source: patent US4190642A

experiment: solubility in water; conditions: water, solubility in water, 37° C.
recorded metric: solubility (mg/mL)

| molecule | recorded number |
| --- | --- |
| CNC[C@H](O)c1ccc(O)c(O)c1 [epinephrine bitartrate] | 670 |

====

test: physchem; conditions: water, solubility in water
recorded metric: solubility (mg/mL)

| molecule | recorded number |
| --- | --- |
| CC[C@@H]1C(=O)OC[C@@H]1Cc1cncn1C [pilocarpine nitrate] | 270 |
